- Assay system: Calmodulin-1 (Homo sapiens)
- Protocol notes: small molecules binding calmodulin-1 with EGTA – biochemical, small-molecule microarray, Cy5-labelled CALM1, profiling panel (AID 1111);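 also: labelled calmodulin applied in Tris saline Tween buffer holding calcium plus EGTA and DTT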
- Stated conditions: Cy5-CALM1 binding fluorescence, higher = more signal
Lab note: compare composite z-score against 0.4. Equal or greater, write 1. Smaller, write 0.

| Structure smiles string | Assay system | Class name |
| --- | --- | --- |
| CCCC[C@@H]1C[C@H]1[C@@H](NC(=O)c1ccco1)c1ccccc1 | Calmodulin-1 (Homo sapiens) | 0 |
| CCCCC(=O)N(Cc1ccccc1F)[C@@H]1CC(C(=O)NCCO)=C[C@H](Oc2c(I)cc(CO)cc2OC)[C@H]1O | Calmodulin-1 (Homo sapiens) | 1 |
| C=C(CCCC)C(=O)CC[C@H](OC(=O)c1ccccc1-c1ccccc1C(=O)O)c1ccc(CO)o1 | Calmodulin-1 (Homo sapiens) | 1 |
| COc1ccc([Si](C)(C)[C@H]2[C@H](CCO)O[C@@]3(C(=O)N(Cc4ccccc4)c4ccc(N5C(=O)COc6ccccc65)cc43)[C@@H]2C)cc1 | Calmodulin-1 (Homo sapiens) | 1 |
| O=C1O[C@H](c2ccccc2)[C@H](c2ccccc2)N2[C@H]1[C@@H](C(=O)N1CCCCCCC1)[C@]1(C(=O)Nc3ccc(C#CC4=CCCCC4)cc31)[C@H]2c1ccc(O)cc1 | Calmodulin-1 (Homo sapiens) | 1 |
| Cc1ccc(N2C(=O)c3ccccc3[C@](C)(C(=O)NCCN3CCOCC3)[C@@H]2c2ccc(CO)cc2)nc1 | Calmodulin-1 (Homo sapiens) | 0 |
| CC(C)CNC(=O)[C@@]1(C)c2ccccc2C(=O)N(C(C)C)[C@H]1c1ccc(CO)cc1 | Calmodulin-1 (Homo sapiens) | 0 |
| O=C1c2ccccc2[C@](Cc2ccccc2I)(C(=O)O)[C@H](c2ccc(CO)cc2)N1Cc1ccccc1C(F)(F)F | Calmodulin-1 (Homo sapiens) | 1 |
| NC(=O)NCC#Cc1ccc2c(c1)[C@]1(C(=O)N2)[C@H](c2ccccc2OCCO)N2[C@H](c3ccccc3)[C@H](c3ccccc3)OC(=O)[C@H]2[C@@H]1C(=O)N1CCCCCCC1 | Calmodulin-1 (Homo sapiens) | 1 |
| CC(C)(C)OC(=O)CC[C@@]1(C(=O)N2CCOCC2)N=C(c2ccc(OCCCO)cc2)O[C@@H]1c1ccccc1N=[N+]=[N-] | Calmodulin-1 (Homo sapiens) | 1 |
| CC(=O)NCCCC[C@@H]1NC(=O)[C@@H]2C[C@H](C(=O)NCCCCCC[N+](C)(C)C)[C@H](c3cccc(OCCO)c3)N2C1=O | Calmodulin-1 (Homo sapiens) | 0 |
| CC(C)C[C@@H]1NC(=O)[C@@H]2C[C@H](C(=O)NCCCCN(C)C)[C@H](c3ccc(O)cc3)N2C1=O | Calmodulin-1 (Homo sapiens) | 0 |
| O=C1O[C@@H](c2ccccc2)[C@@H](c2ccccc2)N2[C@@H](c3ccc(O)cc3)[C@]3(C(=O)Nc4ccc(C#CCCO)cc43)[C@@H](C(=O)N3CCCCCCC3)[C@H]12 | Calmodulin-1 (Homo sapiens) | 1 |
